src = patent US20220162331A1

Let's look at some binders and their measured EC50.
# experimental-target: T1, recombinant human CD73 extracellular domain (Trp27-Lys546) with C-terminal 6-histidine tag (human, UniProt P21589 27-547)
# T1 construct: also called hCD73; hCD73-cHis
# T1 sequence: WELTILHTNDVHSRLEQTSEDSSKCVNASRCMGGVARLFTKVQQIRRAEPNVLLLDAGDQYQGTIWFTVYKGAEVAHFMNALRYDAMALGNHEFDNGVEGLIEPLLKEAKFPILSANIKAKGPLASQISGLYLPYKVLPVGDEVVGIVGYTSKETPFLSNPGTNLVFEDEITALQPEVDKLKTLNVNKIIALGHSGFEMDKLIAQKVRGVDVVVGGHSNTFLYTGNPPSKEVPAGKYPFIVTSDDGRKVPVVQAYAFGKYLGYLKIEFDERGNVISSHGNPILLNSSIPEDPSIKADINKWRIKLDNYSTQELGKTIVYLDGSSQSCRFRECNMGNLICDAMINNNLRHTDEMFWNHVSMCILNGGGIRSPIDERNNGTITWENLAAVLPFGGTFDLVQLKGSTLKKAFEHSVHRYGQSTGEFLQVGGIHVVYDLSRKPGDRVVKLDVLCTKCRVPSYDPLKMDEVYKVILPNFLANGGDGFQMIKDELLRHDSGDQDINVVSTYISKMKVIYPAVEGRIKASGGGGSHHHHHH
# measurement-protocol: ELISA, plate coated with recombinant CD73 extracellular domain
API: value field is a number in nM; no unit string.

# binder, EC50 (nM)
measured = [
    ("CD73 antibody 6A8 (antibody, V domains shown, Mouse variable regions on human IgG heavy chain constant region and human kappa constant region (chimeric IgG); also called Clone 6A8) VH: QVQFQQSGAELARPGTSVKLSCKASGYIFTSYWIQWIKQRPGQGLEWIGAIYPGDGDTRYTQKFKGKATLTAEKSSSTAYMQLRSLASEDSAVYYCAGFASWGQGTLLTVSA VL: DIQMTQSPSSLSASLGERVNLTCRASQDIGDSLIWLQQEPDGTIKRLIYATSSLDSGVPKRFSGSRSGSDYSLTISSLESEDLVDYYCLQYASSPFTFGGGTKLEIK", 0.08),
    ("CD73 antibody 7E10 (antibody, V domains shown, Mouse variable regions on human IgG heavy chain constant region and human kappa constant region (chimeric IgG); also called Clone 7E10) VH: QVQFQQSGAELVRPGASVKLSCKASGYIFSSYWIQWVKQRPGQGLEWIGAIYPGDGDTRYTQKFKDKATLTADKSSSTAYMQLSSLASEDSAVYYCAGFASWGQGTLVTVSA VL: DIQMTQSPSSLSASLGERVSLTCRASQDIGSSLNWLQQEPNGTIKRLIYATSSLDSGVPKRFSGSRSGSDYSLTISSLESEDFADYYCLQYASSPYTFGGGTKLEIK", 0.07),
    ("CD73 antibody 8A8 (antibody, V domains shown, Mouse variable regions on human IgG heavy chain constant region and human kappa constant region (chimeric IgG); also called Clone 8A8) VH: QVQFQQSGAELARPGASVKLSCKASGYIFTSYWIQWIKQRPGQGLEWIGAIYPGDGDTRYTQKFKGKATLTADKSSSTAYMQLRSLASEDSAVYYCAGFASWGQGTLLTVSA VL: DIQMTQSPSSLSASLGERVSLTCRASQDIGESLIWLQQEPDGTIKRLIYATSSLDSGVPKRFSGSRSGSDYSLSISSLESDDFVDYYCLQYSSSPYTFGGGTKLEIK", 0.02),
    ("CD73 antibody 6G8 (chimeric) (antibody, V domains shown, Mouse variable regions on human IgG heavy chain constant region and human kappa constant region (chimeric IgG); also called Clone 6G8; 6G8 Chimera) VH: QVTLKESGPGILKPSQTLSLTCSFSGFSLNTSGMGVGWIRQPSGKGLEWLAHIWWDDDKYYNPSLKSQLTISKDTSRNQVFLRIASVDTADTATYYCARRERWAWFAYWGQGTLVTVSA VL: DIVMTQSQKFMSASVGDRVSVTCKASQNVFTNVAWYQQKPGQSPKVLIYSASYRYSGVPDRFTGSGSGTDFTLTINNVQSEDLAEYFCQQYNSYPTFGSGTKLEIK", 0.02),
]

Notebook: CD73 antibody 2H2 (antibody, V domains shown, also called Clone 2H2) VH: EVKLVESGGGLVQPGGSLKLSCATSGFTFSDYYMYWVRQTPEKRLEWVAYISNVGGSTYYPDTVKGRFTISRDNAKNTLYLQMSRLKSEDTAMYYCARGDGYYGYYFDVWGAGTTVTVSS VL: ENVLTQSPAIMSASPGEKVTMTCSASSSVSYMHWYQQKSGTSPKRWIYDTSKLASGVPTRFSGSGSGTSFSLTISSMEAEDAATYYCQQWSSNPYTFGGGTKLEIK , EC50 read as 0.02
